Exercise: for every item that follows, state its recorded growth.
System: BT-549 breast
method_description: NCI-60 one-dose screen, 48 h (100 = growth as untreated, 0 = no growth, -100 = all killed)
recorded_conditions: 10 µM
About 83,000 compounds went through this panel and 20% of them were active in at least one assay; those are over-represented in the sample as a whole.
Field: numeric (%). Do not append units.

**Query** Entry under review: Cc1ccn2c(C(=O)c3ccc(Br)cc3)cc(-c3cc(-c4ccc(N(C)C)cc4)c(C#N)c(N)n3)c2c1 . Reported growth?
**Result** 61.9

**Query** Any idea what growth was measured for O=C(CSc1nnc(-c2c[nH]c3ccccc23)n1-c1ccccc1)Nc1ccc(C(=O)/C=C/c2cccc([N+](=O)[O-])c2)cc1 ?
**Result** 93.5

**Query** Fill blank: measured growth of the molecule O=C(CNc1nc(-c2ccccc2)cs1)Nc1ccc(Br)cc1 is ____.
**Result** -61.2

**Query** Fill in the blank: the reported growth of CCOc1ccc(/C=N/NC(=O)Cn2nc(Cc3ccccc3)c3onc(C)c3c2=O)cc1 is ____.
**Result** 6.06

**Query** Which growth is listed for CC(C)C(=O)Nc1ccc(C(=O)NC(=S)Nc2ccc(C(=O)O)cc2)cc1 ?
**Result** 79.5

**Query** Would you kindly share the measured growth for O=c1[nH]c2ccccc2cc1CSc1ccc(Nc2nccc(-c3ccc(Cl)cc3)n2)cc1 ?
**Result** -5.03

**Query** Please look up its growth: O=C(c1ccc(O)cc1)C1[C@H](c2ccc(Br)cc2)[C@@H](c2ccccc2)NC12C(=O)Nc1ccccc12 (some centres undefined)
**Result** 116

**Query** growth lookup needed for CCOC(=O)C1=C(N)N(c2ccccc2)C2=C(C(=O)CC(C)(C)C2)C1c1ccc(Cl)cc1 (centres undefined) , thanks.
**Result** 43.2

**Query** GET /values?readout=growth&item= COc1ccccc1C(=O)NNC(=O)CSc1nc2c(c(=O)[nH]1)CCCC2
**Result** 101

----------
System: TK-10 renal
method_description: NCI-60 one-dose screen, 48 h (100 = growth as untreated, 0 = no growth, -100 = all killed)
recorded_conditions: 10 µM
Description: Growth inhibition of the TK-10 human tumor cell line is measured as a screen for anti-cancer activity. Cells are grown in 96 well plates and exposed to the test compound for 48 hours. Compounds are tested at a single concentration, which is 10^-5 M for most compounds. The reported endpoint is percent growth (GI% or GIPRCNT), where numbers from 0 - 100% represent growth inhibition, and numbers from -100% - 0 represent cell death. For example, a value of 40 represents 60% growth inhibition. […]
Compounds without any hit were thinned out: in the full panel of roughly 83,000, 20% have a hit.
Hi! Just check whether growth is below 80%. Below gives yes, equal or above gives no.

**Query** Please determine if O/N=C(\CSc1nnc(-c2c[nH]c3ccccc23)n1-c1ccccc1)c1ccc(Cl)cc1 is below 80% in terms of growth.
**Result** yes

**Query** Record O=C(CNc1nc(-c2ccccc2)cs1)Nc1ccc(Cl)cc1[N+](=O)[O-] : is its growth strictly below 80%?
**Result** yes

**Query** In the record for COc1ccc(NC(=O)Nc2ccc(OCC(=O)N=Nc3c(O)[nH]c4ccc([N+](=O)[O-])cc34)cc2)cc1 , is growth less than 80%?
**Result** no

**Query** Is growth strictly under 80% for the entry CN1CCc2c(sc3ncnc(N/N=C/c4cn(-c5ccccc5)nc4-c4ccc(Cl)cc4)c23)C1 ?
**Result** yes

**Query** Given the entry Cc1ccc(-c2nc(Nc3ccc(S(N)(=O)=O)cc3)c3ccccc3n2)cc1 , would its reported growth be below 80%?
**Result** no

**Query** is_below(growth, 80%) for CCOC(=O)N/C(=C1/OCCN1C)[P+](c1ccccc1)(c1ccccc1)c1ccccc1 ?
**Result** no

**Query** Bench note: check whether CC(=O)C1=C(C)NC(SCC(=O)Nc2ccc(S(=O)(=O)Nc3cc(C)on3)cc2)=NC1c1ccccc1 (configuration not stated) shows growth below 80%
**Result** no

**Query** Is 80% strictly greater than the compound's reported growth? compound: COc1ccc([C@H]2C(C(=O)c3ccc(Cl)cc3)C3(N[C@@H]2c2ccccc2)C(=O)Nc2ccc(Br)cc23)cc1 (some centres not stated)
**Result** yes

**Query** Answer whether the compound O=C(CNc1nc(-c2ccccc2)cs1)Nc1ccccc1 has growth strictly less than 80%
**Result** yes

**Query** growth strictly < 80% for this compound? NC(=Nc1ccc(OCCCCCCCCn2ccnn2)cc1)c1ccccc1
**Result** yes

**Query** Find out if reported growth for Cc1noc2c(Cc3ccc([N+](=O)[O-])cc3)nn(CC(=O)N/N=C/c3ccc(Br)cc3)c(=O)c12 is less than 80%
**Result** no

**Query** A record lists Cc1cc(C)nc(NS(=O)(=O)c2ccc(N/C(N)=N/c3nccc(-c4cccs4)n3)cc2)n1 . Is its growth below 80%?
**Result** no

**Query** Is it true that growth reported for CC[C@@]1(O)C(=O)OCc2c1cc1n(c2=O)Cc2c-1nc1cc(F)c(C)c3c1c2[C@@H](N)CC3 is less than 80%?
**Result** yes

**Query** Threshold test, growth < 80%: COc1ccc2[nH]c(=O)c(CSc3cccc(N)c3)cc2c1
**Result** yes

**Query** Does the reported growth of O=C(c1ccc(O)cc1)C1[C@H](c2ccc(Br)cc2)[C@@H](c2ccccc2)NC12C(=O)Nc1ccccc12 (some centres not stated) stay below 80%?
**Result** yes

**Query** Consider the compound O=C1NC(=NC23CC4CC(CC(C4)C2)C3)N/C1=C\c1ccc2ncoc2c1 . Is its growth strictly less than 80%?
**Result** yes

**Query** For this compound, is growth lower than 80%? O=C(Nc1nc2ccc([N+](=O)[O-])cc2s1)Nc1ccccc1I
**Result** yes

**Query** Does the reported growth of O=C(c1ccc(-n2c(=O)[nH]c3ccccc3c2=O)cc1)N1CCOCC1 stay below 80%?
**Result** no

**Query** Below 80% on growth? Entry O=c1oc2ccc(-c3ccc(F)cc3F)cc2c(=O)n1-c1ccc(F)cc1
**Result** yes

**Query** Take the compound O=C(N=Nc1c(O)[nH]c2ccc(Br)cc12)c1ccc2nc(-c3ccccc3)[nH]c2c1 and say whether its growth is less than 80%.
**Result** yes

**Query** Hi there! Is growth for O/N=C(\CSc1nnc(-c2c[nH]c3ccccc23)n1-c1ccccc1)c1ccc(Br)cc1 below 80%, do you know?
**Result** yes

**Query** Below 80% on growth? Entry CCOc1ccc(/C=N/NC(=O)Cn2nc(Cc3ccccc3)c3onc(C)c3c2=O)cc1
**Result** yes

**Query** Quick check: does O=C(c1ccc(Cl)cc1)C1[C@H](c2ccccc2Br)[C@@H](c2ccccc2)NC12C(=O)Nc1ccc(Br)cc12 (some centres not stated) have growth under 80%?
**Result** yes

**Query** Input S=c1nc(-c2ccccc2)cc(-c2cc3ccccc3nc2Cl)[nH]1 ; condition: growth strictly below 80%. Does it hold?
**Result** no

**Query** Lab note: growth threshold 80%. Does this compound come in strictly under it? O=C(c1ccc(O)cc1)C1[C@H](c2ccc(Br)cc2)[C@@H](c2ccccc2)NC12C(=O)Nc1ccc(Br)cc12 (some centres not stated)
**Result** yes

**Query** Answer whether the compound O=c1oc2ccc(-c3ccc(F)cc3F)cc2c(=O)n1-c1ccc(F)c(Cl)c1 has growth strictly less than 80%
**Result** yes

**Query** Check if growth falls below 80% for COc1ccc2[nH]c(=O)c(CSc3ccc(Nc4nccc(-c5ccc(Cl)cc5)n4)cc3)cc2c1 .
**Result** no

**Query** Given C=C1CCC2C3(C)COC(c4ccccc4F)OC3CCC2(C)C1C/C=C1/C(=O)OCC1O (configuration not stated) , is recorded growth strictly lower than 80%?
**Result** yes

**Query** Identify whether the compound COC[C@@H](CC(C)C)N=C1N/C(=C\c2ccc3ncsc3c2)C(=O)N1C records growth below 80%.
**Result** yes

**Query** Lab note: growth threshold 80%. Does this compound come in strictly under it? O=C(/C=C/Nc1ccc(F)cc1F)c1ccc2c(c1)Nc1ccccc1S2
**Result** no

**Query** For O=C(CNc1nc(-c2ccccc2)cs1)Nc1ccc(Br)cc1 , is the recorded growth below the cut-off of 80%?
**Result** yes

**Query** State whether 80% exceeds growth recorded for Cc1ccc(C(C)C)cc1NC(=O)c1ccccc1N(C)C .
**Result** no

**Query** # check: growth < 80% for CN1CCN(c2ccc(C(=O)/C=C/c3cc(C(F)(F)F)ccc3Cl)cc2)CC1
**Result** yes

**Query** Is 80% strictly greater than the compound's reported growth? compound: COc1ccc(C2N(c3ccc(Br)cc3)N=C(C(C)=O)N2[C@H]2[C@H](OC(C)=O)O[C@H](COC(C)=O)[C@@H](OC(C)=O)[C@@H]2OC(C)=O)cc1 (some centres not stated)
**Result** yes

**Query** API: query returns whether the compound falls strictly under 80% in growth. Query: CN1C/C(=C\c2ccc(O)cc2O)c2[o+]c3cc(O)ccc3cc2C1
**Result** no

Origin of measurements: PubChem BioAssay (NCI)
